target: Adrenergic β2 (H292 cells) (Homo sapiens, UniProt P07550); construct: endogenous in cells; host or cells: H292 cells; assay: Adrenergic β2 Mediated cAMP Production, single concentration 1 μM; format: cell-based; settings: NCI-H292, 1 μM compound, percentage of the maximum response generated by 1E-07M formoterol, read-out: β2 (% effect at 1 μM)
Sequence (P07550 whole entry): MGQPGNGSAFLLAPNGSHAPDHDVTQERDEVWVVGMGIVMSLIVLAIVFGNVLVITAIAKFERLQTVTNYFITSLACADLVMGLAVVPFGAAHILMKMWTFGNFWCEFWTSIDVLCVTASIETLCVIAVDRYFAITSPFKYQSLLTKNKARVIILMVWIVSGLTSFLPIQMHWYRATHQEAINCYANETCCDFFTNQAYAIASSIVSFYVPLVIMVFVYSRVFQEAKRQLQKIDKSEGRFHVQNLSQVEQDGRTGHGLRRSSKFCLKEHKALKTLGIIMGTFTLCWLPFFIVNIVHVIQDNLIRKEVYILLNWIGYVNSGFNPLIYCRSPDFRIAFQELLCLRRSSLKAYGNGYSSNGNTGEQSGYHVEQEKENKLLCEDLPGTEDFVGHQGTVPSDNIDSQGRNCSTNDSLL
Listed next: entries and their corresponding activation at 1 µM.
Quick note: give the figure in %, leave out the unit.

Below, each entry is followed by its recorded activation at 1 µM result.
Cc1nc(CC(=O)N2CCOC3(CCN(CCCCCCCCCNC[C@H](O)c4ccc(O)c5[nH]c(=O)sc45)CC3)C2)cs1 92
Cc1cc(CC(=O)N2CCOC3(CCN(CCCCCCCCCNC[C@H](O)c4ccc(O)c5[nH]c(=O)sc45)CC3)C2)on1 98
Cc1occc1C(=O)N1CCOC2(CCN(CCOc3ccc(CNC[C@H](O)c4ccc(O)c5[nH]c(=O)sc45)cc3)CC2)C1 73
Cc1ccn(CC(=O)N2CCOC3(CCN(CCOc4ccc(CNC[C@H](O)c5ccc(O)c6[nH]c(=O)sc56)cc4)CC3)C2)n1 76
O=C(c1ccc2occc2c1)N1CCOC2(CCN(CCCCCCCCCNC[C@H](O)c3ccc(O)c4[nH]c(=O)sc34)CC2)C1 84
O=C(Cc1noc2ccccc12)N1CCOC2(CCN(Cc3cc(F)cc(CCNC[C@H](O)c4ccc(O)c5[nH]c(=O)sc45)c3)CC2)C1 101

Then this compound:
Could you please provide reported activation at 1 µM for O=C(CCc1ccccc1)N1CCOC2(CCN(CCCCCCCCCNC[C@H](O)c3ccc(O)c4[nH]c(=O)sc34)CC2)C1 ? Thanks!
92

====

molecular target: Adrenergic β2 (H292 cells) (Homo sapiens, UniProt P07550); construct: endogenous in cells; host or cells: H292 cells; experiment: Assay for Adrenergic β2 Mediated cAMP Production (concentration response, AlphaScreen cAMP detection); assay type: cell-based; conditions: cAMP production, 60 minutes at room temperature, 300 μM rolipram, read-out: β2 pEC50 (converted)
Counter-ions that a name gives are not always drawn.
Listed next: entries and their corresponding EC50.
Quick note: give the figure in nM, leave out the unit.

Below, each entry is followed by its recorded EC50 result.
compound	measuredValue
CC(C)c1cnc(C(=O)N2CCOC3(CCN(Cc4cc(F)cc(CCNC[C@H](O)c5ccc(O)c6[nH]c(=O)sc56)c4)CC3)C2)s1 [Example 54, ditrifluoroacetate]	6.31
Cc1cc(C(=O)N2CCOC3(CCN(CCOc4ccc(CNC[C@H](O)c5ccc(O)c6[nH]c(=O)sc56)cc4)CC3)C2)cs1 [Example 104, formate]	79.4

Could you please provide reported EC50 for CC(C)c1cc(C(=O)N2CCOC3(CCN(Cc4cccc(CCNC[C@H](O)c5ccc(O)c6[nH]c(=O)sc56)c4F)CC3)C2)cs1 [Example 70, ditrifluoroacetate] ? Thanks!
7.94

Could you please provide reported EC50 for Cc1nc(C(=O)N2CCOC3(CCN(Cc4cccc(CCNC[C@H](O)c5ccc(O)c6[nH]c(=O)ccc56)c4)CC3)C2)cs1 [Example 7, ditrifluoroacetate] ? Thanks!
6.31

Could you please provide reported EC50 for CC(C)c1nc(C(=O)N2CCOC3(CCN(Cc4cccc(C(C)(C)CNC[C@H](O)c5ccc(O)c6[nH]c(=O)ccc56)c4F)CC3)C2)cs1 [Example 92, ditrifluoroacetate] ? Thanks!
794

Could you please provide reported EC50 for CC(C)c1nc(C(=O)N2CCOC3(CCN(Cc4ccc(C(F)(F)F)c(CCNC[C@H](O)c5ccc(O)c6[nH]c(=O)sc56)c4)CC3)C2)cs1 [Example 270, ditrifluoroacetate] ? Thanks!
251

Could you please provide reported EC50 for Cc1nc(C(=O)N2CCOC3(CCN(CCCCCCCCCNC[C@H](O)c4ccc(O)c5[nH]c(=O)sc45)CC3)C2)cs1 [Example 2, ditrifluoroacetate] ? Thanks!
12.6

Could you please provide reported EC50 for Cc1ccc(C(=O)N2CCOC3(CCN(CCOc4ccc(CNC[C@H](O)c5ccc(O)c6[nH]c(=O)sc56)cc4)CC3)C2)s1 [Example 110, formate] ? Thanks!
63.1

Could you please provide reported EC50 for CCCc1cc(C(=O)N2CCOC3(CCN(Cc4cccc(CCNC[C@H](O)c5ccc(O)c6[nH]c(=O)sc56)c4)CC3)C2)cs1 [Example 267, ditrifluoroacetate] ? Thanks!
10

====

target: Adrenergic β2 (H292 cells) (Homo sapiens); construct: endogenous in cells; host or cells: H292 cells; assay: Assay for Adrenergic β2 Mediated cAMP Production (concentration response, AlphaScreen cAMP detection); type: cell-based; conditions: fraction relative to the maximum activity determined for formoterol
Listed next: entries and their corresponding β2 Intrinsic activity.

Below, each entry is followed by its recorded β2 Intrinsic activity result.
molecule	measuredValue
CC(C)c1ncc(C(=O)N2CCOC3(CCN(CCOc4ccc(CNC[C@H](O)c5ccc(O)c6[nH]c(=O)sc56)cc4)CC3)C2)s1 [Example 114]	0.9
CC(C)c1nc(C(=O)N2CCOC3(CCN(Cc4ccc(C(F)(F)F)c(CCNC[C@H](O)c5ccc(O)c6[nH]c(=O)sc56)c4)CC3)C2)cs1 [Example 270, ditrifluoroacetate]	0.7
CC(C)c1csc(C(=O)N2CCOC3(CCN(Cc4cccc(CCNC[C@H](O)c5ccc(O)c6[nH]c(=O)sc56)c4)CC3)C2)n1 [Example 66, ditrifluoroacetate]	0.9
Cc1sc(C(C)C)nc1C(=O)N1CCOC2(CCN(Cc3cccc(CCNC[C@H](O)c4ccc(O)c5[nH]c(=O)sc45)c3F)CC2)C1 [Example 69, ditrifluoroacetate]	0.9

Then this molecule:
Could you please provide reported β2 Intrinsic activity for Cc1nc(C(=O)N2CCOC3(CCN(CCc4ccc(CNC[C@H](O)c5ccc(O)c6[nH]c(=O)ccc56)s4)CC3)C2)cs1 [Example 98, ditrifluoroacetate] ? Thanks!
0.4

====

Biological target: Adrenergic β2 (H292 cells) (Homo sapiens, UniProt P07550)
Construct: endogenous in cells; host or cells: H292 cells
Experiment: Assay for Adrenergic β2 Mediated cAMP Production (concentration response, AlphaScreen cAMP detection)
Assay type: cell-based
Conditions: cAMP production, 60 minutes at room temperature, 300 μM rolipram, read-out: β2 pEC50 (converted)
Description: Assay for Adrenergic β2 Mediated Camp Production H292 cells are grown in 225 cm2 flasks incubator at 37° C., 5% CO2 in RPMI medium containing 10% (v/v) FBS (foetal bovine serum) and 2 mM L-glutamine. […] The concentration of cAMP (cyclic adenosine monophosphate) in the cell lysate is determined using AlphaScreen™ methodology. […] Intrinsic Activity is expressed as a fraction relative to the maximum activity determined for formoterol in each experiment.
Where a name gives a salt, the structure may show the parent alone.
Flag rule - EC50 less than 0.008 µM flags 1.0; the remaining entries get 0.0.

compound	discreteLabel
CCc1cc(C(=O)N2CCOC3(CCN(Cc4cc(CCNC[C@H](O)c5ccc(O)c6[nH]c(=O)sc56)ccc4F)CC3)C2)cs1 [Example 100, ditrifluoroacetate]	1.0

Decide: EC50 of CC(C)c1nc(C(=O)N2CCOC3(CCN(Cc4cccc(CCNC[C@H](O)c5ccc(O)c6[nH]c(=O)sc56)c4Cl)CC3)C2)cs1 [Example 80, ditrifluoroacetate] strictly below 0.008 µM?
1.0

Decide: EC50 of CC(C)c1nc(C(=O)N2CCOC3(CCN(CCC[S+]([O-])CCCCNC[C@H](O)c4ccc(O)c5[nH]c(=O)sc45)CC3)C2)cs1 (some centres unmarked) [Example 282, formate] strictly below 0.008 µM?
0.0

Decide: EC50 of O=C(c1nc2ccccc2s1)N1CCOC2(CCN(CCOc3ccc(CNC[C@H](O)c4ccc(O)c5[nH]c(=O)sc45)cc3)CC2)C1 [Example 106, formate] strictly below 0.008 µM?
0.0

Decide: EC50 of CC(C)c1csc(C(=O)N2CCOC3(CCN(Cc4cccc(CCNC[C@H](O)c5ccc(O)c6[nH]c(=O)sc56)c4)CC3)C2)n1 [Example 66, ditrifluoroacetate] strictly below 0.008 µM?
0.0

Decide: EC50 of Cc1nc(C(=O)N2CCOC3(CCN(CCCOc4ccc(CNC[C@H](O)c5ccc(O)c6[nH]c(=O)sc56)cc4)CC3)C2)cs1 [Example 8, ditrifluoroacetate] strictly below 0.008 µM?
0.0

Decide: EC50 of Cc1nc(C(=O)N2CCOC3(CCN(Cc4cccc(CCNCC(O)c5ccc(O)c6c5OCC(=O)N6)c4)CC3)C2)cs1 (single isomer, unassigned; isomer 2) [Example 13] strictly below 0.008 µM?
0.0

Decide: EC50 of CC(C)c1nc(C(=O)N2CCOC3(CCN(CCCSCCCCNC[C@H](O)c4ccc(O)c5[nH]c(=O)sc45)CC3)C2)cs1 [Example 281, formate] strictly below 0.008 µM?
0.0

Decide: EC50 of Cc1ccc(C(=O)N2CCOC3(CCN(Cc4cccc(CCNC[C@H](O)c5ccc(O)c6[nH]c(=O)ccc56)c4)CC3)C2)s1 strictly below 0.008 µM?
1.0
